- targetEntity: AmpC_PA (Pseudomonas aeruginosa)
- Sequence (P24735 27-397): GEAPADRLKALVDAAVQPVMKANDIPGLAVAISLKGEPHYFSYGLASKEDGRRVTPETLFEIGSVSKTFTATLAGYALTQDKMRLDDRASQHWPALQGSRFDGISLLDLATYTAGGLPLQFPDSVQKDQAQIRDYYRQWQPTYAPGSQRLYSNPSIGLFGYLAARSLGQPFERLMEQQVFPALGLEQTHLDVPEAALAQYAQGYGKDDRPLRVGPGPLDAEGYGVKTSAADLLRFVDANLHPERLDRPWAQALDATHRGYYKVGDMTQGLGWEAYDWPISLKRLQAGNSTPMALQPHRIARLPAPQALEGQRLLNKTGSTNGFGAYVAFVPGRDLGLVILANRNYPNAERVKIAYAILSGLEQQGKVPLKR
- assayInfo: β-lactamase inhibition, spectrophotometric assay of nitrocefin hydrolysis
IC50 values for the compounds below.
Provide only the numeric value, understood in nM.

Guide cases for IC50, answers given:
compound | targetEntity | IC50 (nM)
C[C@]1(/C=N/NC(=O)c2ccc(O)c(O)c2)[C@H](C(=O)O)N2C(=O)C[C@H]2S1(=O)=O [Example 5] | AmpC_PA (Pseudomonas aeruginosa) | 1720
C[C@]1(/C=N/NC(=O)c2ccc(O)c(O)c2Cl)[C@H](C(=O)O)N2C(=O)C[C@H]2S1(=O)=O [Example 23] | AmpC_PA (Pseudomonas aeruginosa) | 2450
C[C@]1(/C=N/NC(=O)c2cnccn2)[C@H](C(=O)O)N2C(=O)C[C@H]2S1(=O)=O [Example 19] | AmpC_PA (Pseudomonas aeruginosa) | 3680

Give the value of IC50 reported for the following: C[C@]1(/C=N/NC(=O)C2CCN(C(=O)c3ccc(O)c(O)c3Cl)C2)[C@H](C(=O)O)N2C(=O)C[C@H]2S1(=O)=O (stereo partly shown) [Example 38]
2380

Give the value of IC50 reported for the following: CN(/N=C/[C@@]1(C)[C@H](C(=O)O)N2C(=O)C[C@H]2S1(=O)=O)C(=O)c1ccc(O)c(O)c1 [Example 7]
1520

Give the value of IC50 reported for the following: C[C@]1(COC(=O)NNC(=O)c2ccc(O)c(O)c2Cl)[C@H](C(=O)O)N2C(=O)C[C@H]2S1(=O)=O [Example 70]
9140

---

- targetEntity: OXA 24/40 (Acinetobacter baumannii, UniProt Q8RLA6)
- Sequence (Q8RLA6 22-275): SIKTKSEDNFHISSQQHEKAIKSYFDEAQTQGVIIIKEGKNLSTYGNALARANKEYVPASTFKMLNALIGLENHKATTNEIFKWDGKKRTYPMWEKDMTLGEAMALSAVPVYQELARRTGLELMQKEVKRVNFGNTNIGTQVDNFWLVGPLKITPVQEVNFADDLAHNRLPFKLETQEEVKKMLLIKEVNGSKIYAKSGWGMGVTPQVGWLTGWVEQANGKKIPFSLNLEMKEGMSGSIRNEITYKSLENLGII
- assayInfo: β-lactamase inhibition, spectrophotometric assay of nitrocefin hydrolysis
pIC50 values for the molecules below.
Please note pIC50 is a logarithmic value: minus log10 of concentration in mol/L. Answer with that number alone.

Guide cases for pIC50, answers given:
molecule | value
CN(/N=C/[C@@]1(C)[C@H](C(=O)O)N2C(=O)C[C@H]2S1(=O)=O)C(=O)c1ccc(O)c(O)c1 | 5.22
C[C@]1(/C=N/NC(=O)c2cnccn2)[C@H](C(=O)O)N2C(=O)C[C@H]2S1(=O)=O | 5.60

Give the value of pIC50 reported for the following: C[C@]1(/C=N/NC(=O)c2ccc(O)c(O)c2)[C@H](C(=O)O)N2C(=O)C[C@H]2S1(=O)=O
4.94

Give the value of pIC50 reported for the following: C[C@]1(Cn2ccnn2)[C@H](C(=O)O)N2C(=O)C[C@H]2S1(=O)=O [Tazobactam, reference compound]
3.91

Give the value of pIC50 reported for the following: C[C@]1(/C=N/NC(=O)C2CCN(C(=O)c3ccc(O)c(O)c3Cl)C2)[C@H](C(=O)O)N2C(=O)C[C@H]2S1(=O)=O (some centres unmarked)
5.23

Give the value of pIC50 reported for the following: C[C@]1(/C=N/NC(=O)CNC(=O)c2ccc(O)c(O)c2)[C@H](C(=O)O)N2C(=O)C[C@H]2S1(=O)=O
5.24

Give the value of pIC50 reported for the following: O=C(NNC(=O)[C@@H]1CC[C@@H]2CN1C(=O)N2OS(=O)(=O)O)[C@@H]1CCCNC1 [Zidebactam, reference compound]
4.29

Give the value of pIC50 reported for the following: C[C@]1(COC(=O)NNC(=O)c2ccc(O)c(O)c2Cl)[C@H](C(=O)O)N2C(=O)C[C@H]2S1(=O)=O
4.53

Give the value of pIC50 reported for the following: CN(/N=C/[C@@]1(C)[C@H](C(=O)O)N2C(=O)C[C@H]2S1(=O)=O)C(=O)c1ccc(O)c(O)c1Cl
5.64

Give the value of pIC50 reported for the following: C[C@]1(COC(=O)NNC(=O)c2ccc(O)c(O)c2)[C@H](C(=O)O)N2C(=O)C[C@H]2S1(=O)=O
4.19

Give the value of pIC50 reported for the following: C[C@]1(/C=N/NC(=O)c2ccc(O)c(O)c2Cl)[C@H](C(=O)O)N2C(=O)C[C@H]2S1(=O)=O
5.50

---

- System: A. baumannii ATCC 19606
- assayInfo: MIC determination, broth microdilution, ESKAPE panel
- Type: cell-based
- studyConditions: Acinetobacter baumannii, ATCC19606; iron-depleted cation-adjusted Mueller-Hinton broth, 2,2-dipyridyl 160 μM; 37° C., 18-20 hours; read-out: MIC A. baumannii ATCC 19606
parameterMeasured: MIC (µg/mL)
Provide only the numeric value, understood in µg/mL.

molecule | value
C[C@]1(/C=N/NC(=O)[C@H](CO)NC(=O)c2ccc(O)c(O)c2Cl)[C@H](C(=O)O)N2C(=O)C[C@H]2S1(=O)=O [Example 43] | 8

Give the value of MIC reported for the following: C[C@]1(/C=N/NC(=O)CCNC(=O)c2ccc(O)c(O)c2Cl)[C@H](C(=O)O)N2C(=O)C[C@H]2S1(=O)=O [Example 60]
2

---

- targetEntity: UniProt Q6DRA1
- assayInfo: β-lactamase inhibition, spectrophotometric assay of nitrocefin hydrolysis
- Format: biochemical
parameterMeasured: pIC50
Please note pIC50 is a logarithmic value: minus log10 of concentration in mol/L. Answer with that number alone.

compound | value
CC1(C)[C@H](C(=O)O)N2C(=O)C[C@H]2S1(=O)=O [Sulbactam, reference compound] | 4.99

Report measured pIC50 on UniProt Q6DRA1; entry: C[C@]1(Cn2ccnn2)[C@H](C(=O)O)N2C(=O)C[C@H]2S1(=O)=O [Tazobactam, reference compound]
4.62

---

- Test system: A.b TNP 41708
- assayInfo: MIC against A. baumannii clinical isolates, alone and in combination with antibiotics
- Assay type: cell-based
- studyConditions: Acinetobacter baumannii, TNP41708, read-out: MIC A.b TNP 41708
- Description: Minimum inhibitory concentration (MIC) is determined by a broth microdilution method according to the recommendation of the Clinical and Laboratory Standards Institute (CLSI) with minor modification. […]
parameterMeasured: MIC

compound | value
C[C@]1(/C=N/NC(=O)CNC(=O)c2ccc(O)c(O)c2)[C@H](C(=O)O)N2C(=O)C[C@H]2S1(=O)=O | > 128 µg/mL

Turning now to a further record.
Give the value of MIC reported for the following: C[C@@H](O)[C@H]1C(=O)N2C(C(=O)O)=C(S[C@@H]3CN[C@H](C(=O)N(C)C)C3)[C@H](C)[C@H]12 [Meropenem, reference compound]
128 µg/mL

---

- Test system: A.b TNP 41704
- assayInfo: MIC against A. baumannii clinical isolates, alone and in combination with antibiotics
- Format: cell-based
- studyConditions: Compounds + sulbactam (1:1)
parameterMeasured: MIC A.b TNP 41704 (µg/mL)
Provide only the numeric value, understood in µg/mL.

Guide cases for MIC A.b TNP 41704, answers given:
compound | MIC A.b TNP 41704 [µg/mL]
C[C@]1(c2cc(C(=O)c3ccc(O)c(O)c3)on2)[C@H](C(=O)O)N2C(=O)C[C@H]2S1(=O)=O [Example 112] | 2
C[C@]1(/C=N/NC(=O)C2CCN(C(=O)c3ccc(O)c(O)c3Cl)CC2)[C@H](C(=O)O)N2C(=O)C[C@H]2S1(=O)=O [Example 42] | 8
C[C@]1(/C=N/NC(=O)CCNC(=O)c2ccc(O)c(O)c2)[C@H](C(=O)O)N2C(=O)C[C@H]2S1(=O)=O [Example 67] | 1

Give the value of MIC A.b TNP 41704 reported for the following: C[C@]1(/C=N/NC(=O)Cc2ccc(O)c(O)c2)[C@H](C(=O)O)N2C(=O)C[C@H]2S1(=O)=O [Example 20]
4

---

- System: A.b TNP 41704
- assayInfo: MIC against A. baumannii clinical isolates, alone and in combination with antibiotics
- Type: cell-based
- studyConditions: Acinetobacter baumannii, TNP41704; Compounds alone; read-out: MIC A.b TNP 41704
MIC values for the compounds below.
Provide only the numeric value, understood in µg/mL.

Guide cases for MIC, answers given:
compound | targetEntity | resultUnits | MIC
C[C@]1(COC(=O)NNC(=O)c2ccc(O)c(O)c2Cl)[C@H](C(=O)O)N2C(=O)C[C@H]2S1(=O)=O | A.b TNP 41704 | µg/mL | 8
C[C@@H](O)[C@H]1C(=O)N2C(C(=O)O)=C(SCCN=CN)C[C@H]12 [Imipenem, reference compound] | A.b TNP 41704 | µg/mL | 16
C[C@]1(/C=N/NC(=O)CCNC(=O)c2ccc(O)c(O)c2Cl)[C@H](C(=O)O)N2C(=O)C[C@H]2S1(=O)=O | A.b TNP 41704 | µg/mL | 64

Turning now to a further record.
Report measured MIC on A.b TNP 41704; entry: C[C@@H](O)[C@H]1C(=O)N2C(C(=O)O)=C(S[C@@H]3CN[C@H](C(=O)N(C)C)C3)[C@H](C)[C@H]12 [Meropenem, reference compound]
64

---

- Tested on: A. baumannii ATCC 19606
- assayInfo: MIC determination, broth microdilution, ESKAPE panel
- Type: cell-based
- studyConditions: Acinetobacter baumannii, ATCC19606; iron-depleted cation-adjusted Mueller-Hinton broth, 2,2-dipyridyl 160 μM; 37° C., 18-20 hours; read-out: MIC A. baumannii ATCC 19606
parameterMeasured: MIC (µg/mL)
Provide only the numeric value, understood in µg/mL.

compound | MIC, µg/mL
C[C@]1(c2cc(C(=O)c3ccc(O)c(O)c3)on2)[C@H](C(=O)O)N2C(=O)C[C@H]2S1(=O)=O | 32
CN(NC(=O)OC[C@@]1(C)[C@H](C(=O)O)N2C(=O)C[C@H]2S1(=O)=O)C(=O)c1ccc(O)c(O)c1Cl | 0.25
C[C@]1(COC(=O)NNC(=O)c2ccc(O)c(O)c2Cl)[C@H](C(=O)O)N2C(=O)C[C@H]2S1(=O)=O | 1
CN(NC(=O)c1ccc(O)c(O)c1Cl)C(=O)OC[C@@]1(C)[C@H](C(=O)O)N2C(=O)C[C@H]2S1(=O)=O | 0.25
C[C@]1(/C=N/NC(=O)CCNC(=O)c2ccc(O)c(O)c2)[C@H](C(=O)O)N2C(=O)C[C@H]2S1(=O)=O | 4

Turning now to a further record.
Give the value of MIC reported for the following: C[C@@H](O)[C@H]1C(=O)N2C(C(=O)O)=C(S[C@@H]3CN[C@H](C(=O)N(C)C)C3)[C@H](C)[C@H]12 [Meropenem, reference compound]
1
